Reference source: paper PMC11040352

test_details: Ex vivo biodistribution in mice with MM1S tumor xenografts
study_conditions: both sexes, NSG, mouse, adrenals, 80 µCi, 5 min p.i.; MM1S xenograft mice; read-out: uptake in adrenals

compound	tissue uptake at 5 min [%ID/g]
CC[C@H](C)[C@@H]1NC(=O)[C@@H]2CCCN2C(=O)[C@H](Cc2ccccc2)NC(=O)[C@H](CC(=O)O)NC(=O)[C@H](C)NC(=O)[C@@H]2CSCc3cc(cc(c3)CSC[C@H](NC(=O)[C@H](C)NC(=O)CCOCCOCCOCCNC(=O)CN3CCN(CC(=O)O)CCN(CC(=O)O)CC3)C(=O)N[C@@H](C(C)C)C(=O)N3CCC[C@H]3C(=O)N2)CSC[C@@H](C(N)=O)NC(=O)[C@H](Cc2ccc(O)cc2)NC(=O)[C@H](Cc2c[nH]c3ccccc23)NC1=O [[^68Ga]Ga‐AJ206, metal not drawn]	5.07
